Assay: Cytotoxicity against MT4 cells by luciferase assay
Format: cell-based
Settings: human
CC50 overview

Below, each entry is followed by its recorded CC50 result.
INSERT INTO assay_data (compound, readout_name, experimental_value) VALUES
  ('COc1cnc(-c2cc(Cl)ccc2F)nc1Nc1ccncc1C(=O)NCCCN1CCCC1=O', 'CC50', '5.8 µM'),
  ('Fc1ccc(Cl)cc1-c1nc(Nc2ccncc2)c2nccnc2n1', 'CC50', '> 25 µM'),
  ('CN(c1ccccc1)c1nc(-c2cc(Br)ccc2F)nc2nccnc12', 'CC50', '> 32 µM'),
  ('COc1cnc(-c2cc(Cl)ccc2F)nc1Nc1ccncc1C(=O)NCCNCC(C)O (stereo not given)', 'CC50', '> 32 µM');

Field: next compound
Item under review: CCOC(=O)CNC(=O)c1cnccc1Nc1nc(-c2cc(Cl)ccc2F)ncc1OC . Reported CC50?
> 32 µM
